- assay.system: furin, P09958;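 also: purified furin at 1:10 enzyme:substrate in 50 mM HEPES pH 7.5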
- Sequence (P09958 whole entry): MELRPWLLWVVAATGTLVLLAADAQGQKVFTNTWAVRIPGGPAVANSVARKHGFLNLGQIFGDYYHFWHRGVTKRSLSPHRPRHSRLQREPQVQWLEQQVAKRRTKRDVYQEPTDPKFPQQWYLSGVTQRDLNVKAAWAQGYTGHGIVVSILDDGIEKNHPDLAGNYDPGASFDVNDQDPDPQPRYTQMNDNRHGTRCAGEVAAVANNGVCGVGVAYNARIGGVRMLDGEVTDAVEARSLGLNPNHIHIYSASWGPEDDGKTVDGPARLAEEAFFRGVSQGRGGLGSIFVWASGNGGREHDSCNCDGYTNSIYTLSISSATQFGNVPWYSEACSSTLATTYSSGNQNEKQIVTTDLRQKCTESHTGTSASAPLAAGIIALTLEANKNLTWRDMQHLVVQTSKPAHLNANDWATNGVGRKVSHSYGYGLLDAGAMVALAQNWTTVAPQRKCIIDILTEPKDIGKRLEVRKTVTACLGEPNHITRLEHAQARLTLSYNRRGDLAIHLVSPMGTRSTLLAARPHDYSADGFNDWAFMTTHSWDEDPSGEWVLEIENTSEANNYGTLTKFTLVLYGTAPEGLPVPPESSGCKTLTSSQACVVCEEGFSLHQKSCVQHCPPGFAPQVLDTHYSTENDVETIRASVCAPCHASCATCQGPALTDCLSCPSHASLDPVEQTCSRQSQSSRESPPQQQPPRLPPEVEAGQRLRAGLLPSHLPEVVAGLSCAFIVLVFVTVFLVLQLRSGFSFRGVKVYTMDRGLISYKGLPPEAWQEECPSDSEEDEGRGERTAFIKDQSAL
- protocol.summary: furin cleavage Z-score vs untreated control; higher = more cleavage, active = 3.5 or more, inactive = 1 or less, 8 variable residues between constant flanks
- condition.info: 30 min
This is one part of the list. The true hit rate is not given.
Can you answer with just one of these options? 1 for active, 0 for inactive

Ask: Please indicate how the test categorized CARKKRAAGQAGNASASA [FS-1727] .
Reply: 1

Ask: Please indicate how the test categorized CARDGKLPATAGNASASA [HC285] .
Reply: 0

Ask: Please indicate how the test categorized CAMEICSQHLAGNASASA [HC1704] .
Reply: 0

Ask: Please indicate how the test categorized CAVTQRSKRAAGNASASA [FS-388] .
Reply: 1

Ask: Please indicate how the test categorized CASEMEECSQAGNASASA [HC1797] .
Reply: 0

Ask: Please indicate how the test categorized CAVVCGSMSYAGNASASA [HC82] .
Reply: 0

Ask: Please indicate how the test categorized CALLVRKKRKAGNASASA [FS-824] .
Reply: 1

Ask: Please indicate how the test categorized CARQRKSVNAAGNASASA [FS-2363] .
Reply: 1

Ask: Please indicate how the test categorized CAGWLRSKKAAGNASASA [FS-1530] .
Reply: 0

Ask: Please indicate how the test categorized CADYEPPVVHAGNASASA [HC1313] .
Reply: 0

Ask: Please indicate how the test categorized CAWDVVCCSMAGNASASA [HC2108] .
Reply: 0

Ask: Please indicate how the test categorized CARKGRYKAFAGNASASA [FS-2960] .
Reply: 0

Ask: Please indicate how the test categorized CARTMKSVNAAGNASASA [FS-2466] .
Reply: 0

Ask: Please indicate how the test categorized CALEMEECSQAGNASASA [HC1785] .
Reply: 0

Ask: Please indicate how the test categorized CARTKRDVYQAGNASASA [FS-2825] .
Reply: 1

Ask: Please indicate how the test categorized CAAAGRRLARAGNASASA [HC1253] .
Reply: 1

Ask: Please indicate how the test categorized CAPLAVMGSSAGNASASA [HC1462] .
Reply: 0

Ask: Please indicate how the test categorized CARARRTKRHAGNASASA [FS-1255] .
Reply: 1

Ask: Please indicate how the test categorized CAVAVEPVVFAGNASASA [HC645] .
Reply: 0

Ask: Please indicate how the test categorized CARQRRQVWKAGNASASA [FS-3043] .
Reply: 1

Ask: Please indicate how the test categorized CAVPQSFQVAAGNASASA [HC770] .
Reply: 0

Ask: Please indicate how the test categorized CASGSKKKRKAGNASASA [FS-1278] .
Reply: 0
